Each item that follows carries a reported pIC50.
# System Name: phosphorylated p-38-alpha kinase (Homo sapiens, UniProt Q16539)
# Sequence (Q16539 1-360 isoform Q16539-2): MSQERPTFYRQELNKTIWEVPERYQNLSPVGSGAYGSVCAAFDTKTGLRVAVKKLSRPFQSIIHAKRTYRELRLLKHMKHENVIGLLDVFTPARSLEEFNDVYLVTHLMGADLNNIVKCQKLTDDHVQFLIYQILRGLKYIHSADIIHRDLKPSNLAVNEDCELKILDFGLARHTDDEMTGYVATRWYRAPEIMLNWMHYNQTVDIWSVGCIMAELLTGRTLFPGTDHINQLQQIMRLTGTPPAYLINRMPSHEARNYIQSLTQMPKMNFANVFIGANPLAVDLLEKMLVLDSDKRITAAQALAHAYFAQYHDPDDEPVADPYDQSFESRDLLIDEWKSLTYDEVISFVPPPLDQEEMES
# Experiment Description: P-38 alpha kinase assay P1 (coupled spectrophotometric, 2 h pre-incubation)
# Type: biochemical
# Measurement Conditions: method P1 (2 h pre-incubation); read-out: P-38 Data
pIC50: −log10 of the molar value.
Readout: pIC50

- Molecule: "CC(C)(C)c1cc(NC(=O)Nc2cccc(Cl)c2Cl)n(-c2ccc3nc[nH]c(=O)c3c2)n1"
  Measured Number: 7.34
- Molecule: "O=C(Cc1cccc(-n2nc(-c3cccs3)cc2NC(=O)N[C@H]2CCc3ccccc32)c1)NCCO"
  Measured Number: 7.49
- Molecule: "CC(C)(C)c1cc(NC(=O)Nc2ccc(F)c(F)c2F)n(-c2cccc(CC(=O)O)c2)n1"
  Measured Number: 7.14
- Molecule: "Cn1ccc2cc(-n3nc(C(C)(C)C)cc3NC(=O)Nc3cccc(Cl)c3Cl)ccc21"
  Measured Number: 7.23
- Molecule: "CC(C)(C)c1cc(NC(=O)Nc2cccc(Oc3cccnc3)c2)n(-c2cc(CO)c3ccccc3c2)n1"
  Measured Number: 7.46
- Molecule: "CCOC(=O)CCc1cccc(-n2nc(C(C)(C)C)cc2NC(=O)Nc2cccc(Cl)c2Cl)c1"
  Measured Number: 7.09
- Molecule: "CC(C)(C)c1cc(NC(=O)Nc2cccc(Cl)c2Cl)n(-c2ccc3c(c2)C[C@@H](C(=O)O)NC3)n1"
  Measured Number: 7.30
- Molecule: "O=C(Cc1cccc(-n2nc(-c3ccccc3F)cc2NC(=O)Nc2cccc3ccccc23)c1)NCC(O)CO (stereo not shown)"
  Measured Number: 7.54
- Molecule: "CCOC(=O)Cc1cccc(-n2nc(C(C)(C)C)cc2NC(=O)Nc2cccc(Cl)c2Cl)c1"
  Measured Number: 7.68
- Molecule: "CC(C)(C)c1cc(NC(=O)Nc2cccc(Cl)c2Cl)n(-c2cccc(CCO)c2)n1"
  Measured Number: 7.96
- Molecule: "CC(C)(C)c1cc(NC(=O)Nc2cccc(Cl)c2Cl)n(-c2ccc(CC(=O)N3CCC(C(=O)O)CC3)cc2)n1"
  Measured Number: 8.05
- Molecule: "CC(C(=O)O)c1ccc(-n2nc(C(C)(C)C)cc2NC(=O)Nc2cccc(Cl)c2Cl)cc1 (stereo not shown)"
  Measured Number: 7.92
- Molecule: "CNC(=O)Cc1cccc(-n2nc(C(C)(C)C)cc2NC(=O)Nc2ccc(F)c(F)c2F)c1"
  Measured Number: 7.59
- Molecule: "NC(=O)C1CCc2ccc(-n3nc(C4CCCC4)cc3NC(=O)Nc3cccc(Cl)c3Cl)cc21 (stereo not shown)"
  Measured Number: 7.72
- Molecule: "O=C(Cc1cccc(-n2nc(-c3cccs3)cc2NC(=O)Nc2cccc3ccccc23)c1)NCCO"
  Measured Number: 7.92
- Molecule: "O=C(Cc1cccc(-n2nc(-c3ccccc3F)cc2NC(=O)N[C@H]2CCc3ccccc32)c1)NCC(O)CO (stereo partly shown)"
  Measured Number: 7.55

---

# System Name: B-Raf(V599E) kinase (Homo sapiens, UniProt P15056, V600E)
# Sequence (P15056 with tags, fused parts or gaps V600E): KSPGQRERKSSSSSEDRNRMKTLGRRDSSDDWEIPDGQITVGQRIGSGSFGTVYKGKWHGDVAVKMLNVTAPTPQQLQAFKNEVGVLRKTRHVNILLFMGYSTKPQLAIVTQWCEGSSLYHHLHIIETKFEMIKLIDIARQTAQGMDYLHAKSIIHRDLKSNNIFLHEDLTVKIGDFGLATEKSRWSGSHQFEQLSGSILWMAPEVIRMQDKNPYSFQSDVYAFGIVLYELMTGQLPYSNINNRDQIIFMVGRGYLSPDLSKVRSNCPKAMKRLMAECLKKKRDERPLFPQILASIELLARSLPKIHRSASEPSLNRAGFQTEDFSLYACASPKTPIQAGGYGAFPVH
# Experiment Description: B-Raf(V599E) kinase assay B1 (construct 1, MEK1 substrate, coupled spectrophotometric)
# Assay type: biochemical
pIC50: −log10 of the molar value.
Each item that follows carries a reported pIC50.
Readout: pIC50

- Entry Smiles: "CC(C)(C)c1cc(NC(=O)Nc2ccccc2F)n(-c2ccc3c(c2)C(=O)NCC3)n1"
  Measured Number: 7.46
- Entry Smiles: "C[C@H](NC(=O)Nc1cc(C(C)(C)C)nn1-c1cccc(CC(N)=O)c1)c1ccccc1"
  Measured Number: 6.66
- Entry Smiles: "CC(C)(C)c1cc(NC(=O)Nc2cccc(Cl)c2Cl)n(-c2cccc(Cn3c(=O)[nH]n(-c4ccccc4)c3=O)c2)n1"
  Measured Number: 8.06
- Entry Smiles: "CCOC(=O)c1cc(-n2nc(C(C)(C)C)cc2NC(=O)Nc2ccc(F)cc2F)cc2ccccc12"
  Measured Number: 7.55
- Entry Smiles: "CC(C)(C)c1cc(NC(=O)Nc2ccc(Cl)cc2)n(-c2ccc3c(c2)CN(C(=O)NS(C)(=O)=O)CC3)n1"
  Measured Number: 7.17
- Entry Smiles: "CC(C)(C)c1cc(NC(=O)Nc2cccc(Oc3cccnc3)c2)n(-c2ccc3c(c2)CCNC3)n1"
  Measured Number: 8.12
- Entry Smiles: "CC(C)(C)c1cc(NC(=O)Nc2cccc(Oc3cncc(Cl)c3)c2)n(-c2ccc3c(c2)CCNC3)n1"
  Measured Number: 8.33

---

Each item that follows carries a reported pIC50.
# System Name: B-Raf(V599E) kinase (Homo sapiens, UniProt P15056, V600E)
# Experiment Description: B-Raf(V599E) kinase assay B1 (construct 1, MEK1 substrate, coupled spectrophotometric)
# Type: biochemical
pIC50: −log10 of the molar value.
Readout: pIC50

- Compound: "COc1cccc(-n2nc(C(C)(C)C)cc2NC(=O)Nc2cccc(Br)c2)c1"
  Measured Number: 7.42
- Compound: "CCOC(=O)C1CCN(C(=O)Cc2ccc(-n3nc(C(C)(C)C)cc3NC(=O)Nc3cccc(Cl)c3Cl)cc2)CC1"
  Measured Number: 7.33
- Compound: "CC(C)(C)c1cc(NC(=O)Nc2cccc(Cl)c2Cl)n(-c2cccc(CC(N)=O)c2)n1"
  Measured Number: 8.46
- Compound: "CC(C)(C)c1cc(NC(=O)Nc2cccc(F)c2F)n(-c2ccc3[nH]c(=O)ccc3c2)n1"
  Measured Number: 8.38
- Compound: "CC(C)(C)c1cc(NC(=O)Nc2cccc(Cl)c2Cl)n(-c2cccc(C(=O)O)c2)n1"
  Measured Number: 7.70
- Compound: "CC(C)(C)c1cc(NC(=O)Nc2cccc(Cl)c2Cl)n(-c2ccc3c(c2)C(N)=NCC3)n1"
  Measured Number: 8.38
- Compound: "Cn1c(=O)c(-c2cccc(NC(=O)Nc3cc(C(C)(C)C)nn3-c3ccc4c(c3)CCNC4)c2)cc2cncnc21"
  Measured Number: 8.03
- Compound: "CC(C)(C)c1cc(NC(=O)Nc2cccc(F)c2F)n(-c2ccc(CO)cc2)n1"
  Measured Number: 7.41
- Compound: "CC(C)(C)c1cc(NC(=O)Nc2cccc(F)c2F)n(-c2ccc3c(c2)CCN(S(C)(=O)=O)C3)n1"
  Measured Number: 7.60
- Compound: "CC(C)(C)c1cc(NC(=O)Nc2cccc(Cl)c2Cl)n(-c2ccc(CC(N)=O)cc2)n1"
  Measured Number: 8.19
- Compound: "CC(C)(C)c1cc(NC(=O)Nc2cccc(Cl)c2Cl)n(-c2cc(CC(=O)O)c3ccccc3c2)n1"
  Measured Number: 8.41
- Compound: "CC(C)(C)c1cc(NC(=O)Nc2ccc(F)c(F)c2F)n(-c2cc(CC(N)=O)c3ccccc3c2)n1"
  Measured Number: 8.35
- Compound: "CCOC(=O)CCc1cccc(-n2nc(C(C)(C)C)cc2NC(=O)Nc2cccc(Cl)c2Cl)c1"
  Measured Number: 8.14
- Compound: "CC(C)(C)c1cc(NC(=O)Nc2cc(F)c(F)c(F)c2)n(-c2cc(CO)c3ccccc3c2)n1"
  Measured Number: 8.07
- Compound: "Cc1cc(NC(=O)Nc2cc(C(C)(C)C)nn2-c2ccc3c(c2)C(=O)NCC3)no1"
  Measured Number: 6.58
- Compound: "COc1cccc(-n2nc(C(C)(C)C)cc2NC(=O)Nc2cc(Cl)cc(Cl)c2)c1"
  Measured Number: 7.15
- Compound: "CC(C)(C)c1cc(NC(=O)Nc2cccc(Cl)c2Cl)n(-c2ccc(CO)cc2)n1"
  Measured Number: 8.32
- Compound: "CNC(=O)c1cc(Oc2ccc(NC(=O)Nc3cc(C(C)(C)C)nn3-c3ccc4nc(N5CC[C@@H](N(C)C)C5)ccc4c3)cc2)ccn1"
  Measured Number: 7.20
- Compound: "COc1cccc(-n2nc(C(C)(C)C)cc2NC(=O)Nc2ccc(Cl)cc2Cl)c1"
  Measured Number: 7.55
- Compound: "CC(C)(C)c1cc(NC(=O)Nc2cccc(Cl)c2Cl)n(-c2ccc3c(c2)CCNCC3)n1"
  Measured Number: 8.24
- Compound: "CC(C)(C)c1cc(NC(=O)Nc2cccc(Cl)c2Cl)n(-c2ccc(CC(=O)O)cc2)n1"
  Measured Number: 8.09
- Compound: "CC(C)(C)c1cc(NC(=O)NC2CCCCC2)n(-c2cccc(-c3cccnc3)c2)n1"
  Measured Number: 6.87
- Compound: "CC(C)(C)c1cc(NC(=O)Nc2cccc(F)c2F)n(-c2ccc3ncccc3c2)n1"
  Measured Number: 8.19
- Compound: "CC(C)(C)c1cc(NC(=O)Nc2cccc(C#N)c2)n(-c2ccc3c(c2)NCC3)n1"
  Measured Number: 6.94
- Compound: "CC(C)(C)c1cc(NC(=O)Nc2cccc(Cl)c2Cl)n(-c2cccc(CCC(=O)O)c2)n1"
  Measured Number: 8.48
- Compound: "CO[C@@H]1CCN(C(=O)Cc2cccc(-n3nc(C(C)(C)C)cc3NC(=O)Nc3cccc(Cl)c3Cl)c2)C1"
  Measured Number: 7.70
- Compound: "CC(C)(C)c1cc(NC(=O)Nc2cccc(Cl)c2Cl)n(-c2ccc3c(c2)CCC(=O)N3)n1"
  Measured Number: 8.72
- Compound: "CC(C)(C)c1cc(NC(=O)Nc2cccc(Oc3cccnc3)c2)n(-c2cc(CC(=O)NCC(O)CO)c3ccccc3c2)n1 (stereo not shown)"
  Measured Number: 8.14
- Compound: "CC(C)NCCc1cccc(-n2nc(C(C)(C)C)cc2NC(=O)Nc2cccc(Cl)c2Cl)c1"
  Measured Number: 8.08
- Compound: "CC(C)(C)c1cc(NC(=O)Nc2ccc(Cl)cc2)n(-c2ccc3c(c2)CCC(=O)N3)n1"
  Measured Number: 6.73
- Compound: "CC(C)(C)c1cc(NC(=O)NC2CCCCC2)n(-c2ccc3c(c2)C(=O)NCC3)n1"
  Measured Number: 7.01
